Recorded logD by entry
assay: Lipophilicity, logD of the compound at pH 7.4 by shake flask method; type: physicochemical; conditions: buffer
// no unit string in output, number only

[
  {
    "MOLECULE_SMILES": "Cc1[nH]c2c(c(=O)c1-c1ccc(Cl)cc1)CC(F)(F)CC2",
    "logD": 2.7
  },
  {
    "MOLECULE_SMILES": "Cc1[nH]c2c(c(=O)c1-c1ccc(OC(F)(F)F)cc1)CCCC2",
    "logD": 3.3
  },
  {
    "MOLECULE_SMILES": "Cc1[nH]c2ccccc2c(=O)c1-c1ccc(Oc2ccc(OC(F)(F)F)cc2)cc1",
    "logD": 4.9
  },
  {
    "MOLECULE_SMILES": "Cc1[nH]c2c(c(=O)c1-c1ccc(Oc3ccc(OC(F)(F)F)cc3)cc1)CC(F)(F)CC2",
    "logD": 3.9
  },
  {
    "MOLECULE_SMILES": "Cc1[nH]c2c(c(=O)c1-c1ccc(Oc3ccc(OC(F)(F)F)cc3)cc1)COCC2",
    "logD": 3.8
  },
  {
    "MOLECULE_SMILES": "Cc1[nH]c2c(c(=O)c1-c1ccc(Oc3ccc(OC(F)(F)F)cc3)cc1)CCCC2",
    "logD": 4.5
  }
]

# lookup: logD of `Cc1[nH]c2c(c(=O)c1-c1ccc(F)cc1)CC(F)(F)CC2`
1.7

---

experiment: Clearance in mouse administered intravenously; format: ADME; conditions: in vivo, route iv
QUANTITY_KIND: clearance
Quick note: number first, unit second.

For the compound `COc1cc2[nH]c(C)c(-c3ccc(Oc4ccc(OC(F)(F)F)cc4)cc3)c(=O)c2cc1Cl` , what clearance is on record?
0.7 mL/min/kg
